System: HBV
protocol details: Antiviral efficacy in AML12HBV10 cells, HBV DNA by dot-blot hybridization
Format: cell-based, Hepatitis B virus (HBV)
experimental parameters: AML12HBV10 cells, 48 hours, concentration reducing HBV DNA by 50%; read-out: EC50 (antiviral activity by dot blot hybridization)
endpoint name: EC50 (µM)
Note: unit µM is implicit; provide only the numeric part.

Challenge: Given the compound NS(=O)(=O)c1cc(C(=O)Nc2cccc(C(F)(F)F)c2)ccc1F , write its reported EC50.
Response given: 9

Challenge: Given the compound Cc1cccc(NC(=O)c2cc(S(N)(=O)=O)ccc2Cl)c1 , write its reported EC50.
Response given: 6

Challenge: Given the compound C=CCNS(=O)(=O)c1ccc(F)c(C(=O)Nc2ccc(F)c(F)c2)c1 , write its reported EC50.
Response given: 4

Challenge: Given the compound COc1ccc(CCNS(=O)(=O)c2ccc(F)c(C(=O)Nc3ccc(Cl)cc3)c2)cc1OC , write its reported EC50.
Response given: 16.8

Challenge: Given the compound NS(=O)(=O)c1cc(C(=O)Nc2cc(C(F)(F)F)ccc2Cl)ccc1F , write its reported EC50.
Response given: 6.8

Challenge: Given the compound NS(=O)(=O)c1cccc(C(=O)Nc2ccccc2)c1 , write its reported EC50.
Response given: 8
